target: mouse BLyS protein (mouse, UniProt Q9WU72 69-309); experiment: cell-based or functional assay
Sequence (Q9WU72 69-309): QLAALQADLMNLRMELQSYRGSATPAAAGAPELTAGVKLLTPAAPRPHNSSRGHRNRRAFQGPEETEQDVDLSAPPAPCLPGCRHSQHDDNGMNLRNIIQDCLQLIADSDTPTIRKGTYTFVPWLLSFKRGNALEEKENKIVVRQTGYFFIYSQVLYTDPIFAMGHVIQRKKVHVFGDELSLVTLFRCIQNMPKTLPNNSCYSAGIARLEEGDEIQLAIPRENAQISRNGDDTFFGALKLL
Quick reference: mouse B lymphocyte proliferation (OD450 nm), antibody 4 nM of the listed items.
Measured Metric: mouse B lymphocyte proliferation (OD450 nm), antibody 4 nM

{"columns": ["Binder", "Obs Value"],
 "data": [
  ["97E7B3F2 (antibody, V domains shown, Mouse hybridoma monoclonal antibody purified on Protein G) VH: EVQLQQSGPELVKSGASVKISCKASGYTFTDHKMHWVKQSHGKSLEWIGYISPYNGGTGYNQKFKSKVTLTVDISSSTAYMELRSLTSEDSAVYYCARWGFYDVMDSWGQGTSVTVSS VL: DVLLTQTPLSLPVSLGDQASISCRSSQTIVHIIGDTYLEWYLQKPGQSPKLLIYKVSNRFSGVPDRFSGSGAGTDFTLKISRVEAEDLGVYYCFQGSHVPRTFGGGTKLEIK", 2410],
  ["78C11D2D12 (antibody, V domains shown, Mouse hybridoma monoclonal antibody purified on Protein G) VH: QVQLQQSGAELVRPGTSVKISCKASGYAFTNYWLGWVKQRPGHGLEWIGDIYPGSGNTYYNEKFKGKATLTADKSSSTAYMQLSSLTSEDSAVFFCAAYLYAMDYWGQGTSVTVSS VL: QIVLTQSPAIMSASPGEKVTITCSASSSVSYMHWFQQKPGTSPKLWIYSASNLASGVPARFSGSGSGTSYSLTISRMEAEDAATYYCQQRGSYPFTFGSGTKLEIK", 2340],
  ["2-1G11 (antibody, V domains shown, From a human naive scFv phage library; also called human BLyS antibody 2-1G11) VH: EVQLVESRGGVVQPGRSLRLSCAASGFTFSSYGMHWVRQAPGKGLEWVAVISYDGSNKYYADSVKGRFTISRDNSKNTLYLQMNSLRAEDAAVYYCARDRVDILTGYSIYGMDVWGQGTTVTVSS VL: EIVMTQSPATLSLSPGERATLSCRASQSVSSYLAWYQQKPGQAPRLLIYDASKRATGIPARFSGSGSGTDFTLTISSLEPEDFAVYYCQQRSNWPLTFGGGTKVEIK", 2460],
  ["20D1B6E9E5 (antibody, V domains shown, Mouse hybridoma monoclonal antibody purified on Protein G) VH: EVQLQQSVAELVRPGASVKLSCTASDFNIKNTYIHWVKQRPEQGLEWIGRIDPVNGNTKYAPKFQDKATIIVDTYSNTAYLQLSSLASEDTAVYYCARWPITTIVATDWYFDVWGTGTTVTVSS VL: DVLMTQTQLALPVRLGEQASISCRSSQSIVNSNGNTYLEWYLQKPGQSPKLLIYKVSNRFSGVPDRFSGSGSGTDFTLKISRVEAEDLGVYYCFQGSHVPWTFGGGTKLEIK", 2200],
  ["67A2E1D10 (antibody, V domains shown, Mouse hybridoma monoclonal antibody purified on Protein G) VH: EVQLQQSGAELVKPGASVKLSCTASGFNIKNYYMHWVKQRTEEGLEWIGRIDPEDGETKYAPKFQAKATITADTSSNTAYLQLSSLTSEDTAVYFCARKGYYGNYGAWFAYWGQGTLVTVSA VL: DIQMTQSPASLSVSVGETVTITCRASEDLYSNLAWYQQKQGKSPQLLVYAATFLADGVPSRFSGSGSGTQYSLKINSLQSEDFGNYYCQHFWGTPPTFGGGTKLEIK", 2410]
]}
